Target: 84V90M (Human immunodeficiency virus type 1 group M subtype B, UniProt P04585, I572V/L578M)
Assay: cell-based
Set-up: species or system HIV-1
Assign labels as follows, please: label 1 for EC50 below 3000 nM; label 0 for EC50 equal to or exceeding 3000 nM.

- COMPOUND: "CCOP(=O)(COc1ccc(CC2C(O)C(O)C(Cc3ccc(OC)cc3)N(Cc3cccc(N)c3)C(=O)N2Cc2cccc(N)c2)cc1)OCC (stereo not drawn) [OCH3, Ph-mNH2, OCH2PO3Et2]"
  CLASS NAME: "label 1"
- COMPOUND: "Nc1n[nH]c2ccc(CN3C(=O)N(CCCOCP(=O)(O)O)C(Cc4ccccc4)C(O)C(O)C3Cc3ccccc3)cc12 (stereo not drawn) [OCH2PO3H2]"
  CLASS NAME: "label 0"
- COMPOUND: "CCCCN1C(=O)N(Cc2ccc3[nH]nc(N)c3c2)C(Cc2ccccc2)C(O)C(O)C1Cc1ccccc1 (stereo not drawn) [CH3 (DMP-851)]"
  CLASS NAME: "label 1"
- COMPOUND: "CCOP(=O)(CCCNC(=O)c1cccc(CN2C(=O)N(Cc3cccc(N)c3)C(Cc3ccccc3)C(O)C(O)C2Cc2ccccc2)c1)OCC (stereo not drawn)"
  CLASS NAME: "label 1"
- COMPOUND: "CCOP(=O)(COCCCCN1C(=O)N(Cc2ccc3[nH]nc(N)c3c2)C(Cc2ccccc2)C(O)C(O)C1Cc1ccccc1)OCC (stereo not drawn) [CH2OCH2PO3Et2]"
  CLASS NAME: "label 0"
